Ref: PubChem BioAssay AID1159580

Assay: chemical genetic growth profiling, strain panel (AID 1159580);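 note: tested at 20 µM; growth read once vehicle control cultures reached saturation at 30 °C; 1 = growth at the plate median or of vehicle wells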
Details: S. cerevisiae deletion strains, growth OD, locus YOR290C, strain snf2, stronger effect = lower value
The campaign covered roughly 5,500 compounds. About 2,000 (36%) were called active. Roughly 18% stayed inconclusive and do not appear here. The list shows a part of the results.
Friendly reminder: normalized growth below 1 is yes (1), at or above is no (0).

See these solved cases before continuing.
CC(C(=O)O)c1ccc(-c2ccccc2)c(F)c1 (stereo unspecified)    yes (1)
CCOC(=O)C(=O)C1(C(=O)OCC)Oc2cc(OC)cc(OC)c2C(=O)C1c1ccccc1 (stereo unspecified)    yes (1)
CC1=C(/C=C/C(C)=C/C=C/C(C)=C/C=C/C=C(C)/C=C/C=C(C)/C=C/C(=O)[C@]2(C)C[C@@H](O)CC2(C)C)C(C)(C)C[C@H](O)C1    no (0)

Problem: normalized growth strictly < 1 for this compound? S=c1nc[nH]c2nc[nH]c12
Solution: no (0)

Problem: Dear colleague, could you confirm whether normalized growth of CCOC(=O)C(Cc1ccc(O)cc1)NC(C)=O (stereo unspecified) falls below 1? Thanks.
Solution: no (0)

Problem: Here's an entry: CCCCCCCCCCCCCCCC[N+](C)(C)C . Is its normalized growth below 1?
Solution: yes (1)

Problem: Is it true that normalized growth reported for CC(=O)OC(C)(C)[C@@H]1Cc2cc3ccc(=O)oc3cc2O1 is less than 1?
Solution: yes (1)

Problem: Threshold test, normalized growth < 1: CN(C)CC/C=C1\c2ccccc2Sc2ccc(Cl)cc21
Solution: yes (1)

Problem: Determine whether this compound shows normalized growth lower than 1 (ties excluded): COc1ccc2cc([C@H](C)C(=O)O)ccc2c1
Solution: yes (1)

Problem: Threshold test, normalized growth < 1: COC1=CC(=O)C[C@@H](C)[C@]12Oc1c(Cl)c(OC)cc(OC)c1C2=O
Solution: no (0)

* * *

Assay: chemical genetic growth profiling, strain panel (AID 1159580);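 note: tested at 20 µM; growth read once vehicle control cultures reached saturation at 30 °C; 1 = growth at the plate median or of vehicle wells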
Details: S. cerevisiae deletion strains, growth OD, locus YHR079C, strain IRE1
Hit rate of the full screen: of about 5,500 compounds, about 2,000 (36%) were called active. Inconclusive results (about 18%) are left out. No stated cut-off is given here; in the data, active means normalized growth mostly below about 0.91 (no sharp cut-off); inconclusive means no clear call, values can overlap the other calls; inactive means mostly above about 0.92. The list shows a part of the results.
Outcome (select one): y (active), n (inactive)

Solved entries:
CC(=O)OCC(=O)[C@@]1(O)CCC2C3CCC4=CC(=O)CC[C@]4(C)C3C(=O)C[C@@]21C (some centres undefined)    n
CC(=O)OCC(=O)[C@H]1CCC2C3CCC4=CC(=O)CC[C@]4(C)C3CC[C@@]21C (some centres undefined)    n
COCCc1ccc(OCC(O)CNC(C)C)cc1 (centres undefined)    n

Problem: Recorded test call requested for COc1cc(NS(=O)(=O)c2ccc(N)cc2)nc(OC)n1
Solution: n

* * *

Assay: chemical genetic growth profiling, strain panel (AID 1159580);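 note: tested at 20 µM; growth read once vehicle control cultures reached saturation at 30 °C; 1 = growth at the plate median or of vehicle wells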
Details: S. cerevisiae deletion strains, growth OD, locus YPL241C, strain CIN2
About 2,000 (36%) of roughly 5,500 compounds were called active. Another 18% or so got no clear call; they are omitted. Rule as the data show it: active = normalized growth mostly below about 0.91 (no sharp cut-off); inconclusive = no clear call, values can overlap the other calls; inactive = mostly above about 0.92. The list shows a part of the results.
Lab note: assign the record to one of active, inactive

# count of solved cases: 5
Cc1cccc(C2CN(C)CCc3c2cc(O)c(O)c3Cl)c1 (configuration not stated)    inactive
Oc1ccc(C2CNCCc3c2cc(O)c(O)c3Cl)cc1 (configuration not stated)    inactive
CN[C@@H](C)[C@@H](O)c1ccccc1    inactive
CC(=O)NCCc1ccc(O)c(O)c1    inactive
C=CCN1CCc2c(cc(O)c(O)c2Br)[C@@H](c2ccccc2)C1    active

Problem: What outcome does the record of this test show for CC1=C(/C=C/C(C)=C/C=C/C(C)=C/C=C/C=C(C)/C=C/C=C(C)/C=C/C2=C(C)C(=O)C(O)CC2(C)C)C(C)(C)CC(O)C1=O (configuration not stated) ?
Solution: inactive

Problem: Which outcome was assigned to CN1CCc2cc(O)c(O)cc2C(c2ccccc2)C1 (configuration not stated) in this test?
Solution: inactive
